All values here come from patent US20240150460A1.

Target: T1, human NKp30-his protein (KACTUS; Cat: NKP-HM430) (human, UniProt O14931 19-135, limits assumed)
T1 construct: Bought protein (KACTUS NKP-HM430); not shown: His tag
T1 sequence (looked up): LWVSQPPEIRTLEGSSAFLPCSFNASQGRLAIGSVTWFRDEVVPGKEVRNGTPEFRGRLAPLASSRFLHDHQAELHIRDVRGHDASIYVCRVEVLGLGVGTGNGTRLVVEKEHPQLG
Experiment: BLI (Octet Red96e), antibody captured on AHC sensor, 100 nM human NKp30-his in solution, 1:1 fit
QUANTITY: pKd
One number for each entry, as −log10 of the molar value.

For the 4 binders below, give their pKd values.
1. antibody 14 (antibody, V domains shown, expressed in CHO cells) VH: QLQLVESGGGLVQPGGSLRLSCAVSASIFSVNEMGWYRQAPGKLRELVAAITSDGTTAYADSVKGRFTISRDNAKNTVYLQMNSLKPEDTAVYDCNTWPQARGDWGQGTQVTVSS
2. antibody 20 (antibody, V domains shown, expressed in CHO cells) VH: EVQLVESGGGLVQPGGSLRLSCAASGSAFSIEPWGWYRQAPGQLRELVAGITSDDKTDYADSVKDRFTISRDNAKNTVFLQMNSLKPEDTAVYYCNVLGWPRDDYWGQGTQVTVSS
3. antibody 5 (antibody, V domains shown, expressed in CHO cells) VH: EVQVVESGGGLVQAGGSLTLSCAASGRPFSTFPTSMGWFRQAPGKEREFVAAISESGLNTYYRDSVKGRFGISRDNAKNTVYLQMNTLTAEDTAVYFCAAAPGYMTTDSQYYLGNKYQYWGQGTQVTVSS
4. antibody 13 (antibody, V domains shown, expressed in CHO cells) VH: EVQLVESGGGLVQPGGSLRLSCAASGGIFGSTHMGWYRQAPGKLREMVAGITSTGNHRNVADSVKGRFTISKDNAKNTLYLQMNSLKPEDTAVYYCNSFPDQVFNWGQGTQVTVSS

[8.87, 8.90, 6.98, 9.36]
